Hey, just so you know, these numbers are from the NIST ThermoML archive (doi:10.1021/je300938w).

- experiment: wn = mass fraction of the nth substance listed
- assay-context: 328.15 K; 101 kPa; Liquid; Vibrating tube method; w1 = 0.25
measurement-label: mass density (kg/m3)

| compound | mass density, kg/m3 |
| --- | --- |
| CC(O)CNCC(C)O (centres undefined) [N-(2-hydroxypropyl)-2-hydroxy-1-propanamine] + O | 998.953 |
| OCCNCCO [diethanolamine] + O | 1013.36 |
| CC(O)CN(CC(C)O)CC(C)O (centres undefined) [triisopropanolamine] + O | 998.98 |
| CC(O)CN (centres undefined) [1-amino-2-propanol] + O | 986.711 |

---

- experiment: wn = mass fraction of the nth substance listed
- assay-context: 343.15 K; 101 kPa; Liquid; Concentric cylinders viscometry; w1 = 0.2
measurement-label: viscosity (mPa·s)

| compound | viscosity [mPa·s] |
| --- | --- |
| CC(O)CNCC(C)O (centres undefined) [N-(2-hydroxypropyl)-2-hydroxy-1-propanamine] + O | 0.8146 |
| CC(O)CN (centres undefined) [1-amino-2-propanol] + O | 0.7408 |
| OCCNCCO [diethanolamine] + O | 0.7459 |
| CC(O)CN(CC(C)O)CC(C)O (centres undefined) [triisopropanolamine] + O | 0.7694 |

---

- experiment: refractive index (Na D-line) (dimensionless); wn = mass fraction of the nth substance listed
- assay-context: 338.15 K; 101 kPa; Liquid; Standard Abbe refractometry; w1 = 0.05
measurement-label: refractive index

| compound | measurement-label | test-result |
| --- | --- | --- |
| OCCNCCO [diethanolamine] + O | refractive index | 1.33234 |
| CC(O)CN(CC(C)O)CC(C)O (centres undefined) [triisopropanolamine] + O | refractive index | 1.3337 |
| CC(O)CNCC(C)O (centres undefined) [N-(2-hydroxypropyl)-2-hydroxy-1-propanamine] + O | refractive index | 1.33363 |
| CC(O)CN (centres undefined) [1-amino-2-propanol] + O | refractive index | 1.33173 |

---

- experiment: refractive index (Na D-line) (dimensionless); wn = mass fraction of the nth substance listed
- assay-context: 298.15 K; 101 kPa; Liquid; Standard Abbe refractometry; w1 = 0.2
measurement-label: refractive index

| molecule | test-result |
| --- | --- |
| CC(O)CN(CC(C)O)CC(C)O (centres undefined) [triisopropanolamine] + O | 1.36317 |
| CC(O)CNCC(C)O (centres undefined) [N-(2-hydroxypropyl)-2-hydroxy-1-propanamine] + O | 1.3621 |
| CC(O)CN (centres undefined) [1-amino-2-propanol] + O | 1.35955 |
| OCCNCCO [diethanolamine] + O | 1.36184 |

---

- experiment: wn = mass fraction of the nth substance listed
- assay-context: 303.15 K; 101 kPa; Liquid; Vibrating tube method; w1 = 0.1
measurement-label: mass density (kg/m3)

| molecule | measurement-label | measurement-units | test-result |
| --- | --- | --- | --- |
| CC(O)CN(CC(C)O)CC(C)O (centres undefined) [triisopropanolamine] + O | mass density | kg/m3 | 1002.67 |
| CC(O)CNCC(C)O (centres undefined) [N-(2-hydroxypropyl)-2-hydroxy-1-propanamine] + O | mass density | kg/m3 | 1001.97 |
| OCCNCCO [diethanolamine] + O | mass density | kg/m3 | 1007.53 |
| CC(O)CN (centres undefined) [1-amino-2-propanol] + O | mass density | kg/m3 | 997.57 |
